Molecular target: Organic anion transporter 3 (Homo sapiens)
Sequence (Q8TCC7 whole entry): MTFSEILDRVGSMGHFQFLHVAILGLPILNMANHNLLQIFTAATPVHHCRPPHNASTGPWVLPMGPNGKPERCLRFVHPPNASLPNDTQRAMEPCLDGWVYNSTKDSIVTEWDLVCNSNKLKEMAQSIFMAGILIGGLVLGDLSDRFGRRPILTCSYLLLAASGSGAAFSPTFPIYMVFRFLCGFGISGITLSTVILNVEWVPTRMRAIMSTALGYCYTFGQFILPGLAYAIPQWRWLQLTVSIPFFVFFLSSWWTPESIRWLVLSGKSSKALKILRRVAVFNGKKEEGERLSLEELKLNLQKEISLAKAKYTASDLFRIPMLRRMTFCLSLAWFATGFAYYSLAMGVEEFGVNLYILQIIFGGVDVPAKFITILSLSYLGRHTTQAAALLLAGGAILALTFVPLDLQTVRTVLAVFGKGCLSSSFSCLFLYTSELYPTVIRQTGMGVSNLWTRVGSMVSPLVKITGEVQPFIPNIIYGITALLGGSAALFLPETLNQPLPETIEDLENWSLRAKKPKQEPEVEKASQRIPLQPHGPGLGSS
Assay: Inhibition of OAT3 (unknown origin) expressed in HEK293 cells assessed as reduction of [3H]E-sul substrate uptake by liquid scintillation counting
pIC50: −log10 of the molar value.
Property measured: pIC50

Task item: So what does the record say about pIC50 for CC#CCn1c(N2CCC[C@@H](N)C2)nc2c1c(=O)n(Cc1nc(C)c3ccccc3n1)c(=O)n2C [LINAGLIPTIN] ?
Reply: < 4.00

====

Tested on: P-glycoprotein
Assay: Permeability assessed as human P-glycoprotein-mediated of transport of basolateral to apical side expressed in pig LLC-PK1 cells by Transwell experiment/liquid scintillation counting
Assay type: ADME, cell-based
Property measured: Km (µM)
Number only, in µM; omit the unit.

Task item: Find the recorded Km belonging to CC#CCn1c(N2CCC[C@@H](N)C2)nc2c1c(=O)n(Cc1nc(C)c3ccccc3n1)c(=O)n2C and report it.
Reply: 154
